Values compiled from paper PMC10120512.

For reference, pKi measured on VchβCA (Vibrio cholerae):
Reminder that pKi is minus the log10 of a molar concentration.

Example molecules with recorded pKi:
>>> test_value("NS(=O)(=O)c1ccc(NC(=O)CNc2ccccc2Br)cc1")
4.32
>>> test_value("CCCCN1CCN(c2cccc(S(N)(=O)=O)c2)C1=O [15c]")
3.91
>>> test_value("NS(=O)(=O)c1cccc(N2CCN(c3ccccc3Br)C2=O)c1 [14c]")
3.88
>>> test_value("CCCCNCC(=O)Nc1ccc(S(N)(=O)=O)cc1")
3.85
>>> test_value("NS(=O)(=O)c1cccc(N2CCN(c3ccc(Cl)cc3)C2=O)c1 [13c]")
3.91

Could you tell me which pKi is on file for NS(=O)(=O)c1ccc(NC(=O)CNc2ccccc2F)cc1 ? 4.29

###

For reference, log10(Ki) measured on VchαCA (Vibrio cholerae, UniProt Q9KMP6):
Plainly stated, the numbers are log10 of Ki given in nM.

>>> test_value("Cc1ccc(NCCNc2ccc(S(N)(=O)=O)cc2)cc1")
1.63
>>> test_value("NS(=O)(=O)c1ccc(NCCNc2ccc(I)cc2)cc1")
1.81
>>> test_value("NS(=O)(=O)c1cccc(NCCNc2ccc(Cl)cc2)c1 [13a]")
1.88
>>> test_value("NS(=O)(=O)c1cccc(N2CCN(c3ccccc3)C2=O)c1 [11c]")
1.70
>>> test_value("NS(=O)(=O)c1cccc(N2CCN(c3ccc(Cl)cc3)C2=O)c1 [13c]")
0.60

In the following, a different compound is considered.
Could you tell me which log10(Ki) is on file for NS(=O)(=O)c1ccc(NC(=O)CNc2ccccc2Br)cc1 ? 1.79

###

For reference, pKi measured on VchβCA (Vibrio cholerae):
Reminder that pKi is minus the log10 of a molar concentration.

Example compounds with recorded pKi:
>>> test_value("Cc1ccc(NCC(=O)Nc2ccc(S(N)(=O)=O)cc2)cc1")
4.01
>>> test_value("NS(=O)(=O)c1ccc(NCCNc2ccccc2)cc1")
4.74
>>> test_value("Cc1ccc(NCCNc2ccc(S(N)(=O)=O)cc2)cc1")
4.77
>>> test_value("NS(=O)(=O)c1cccc(NC(=O)CNc2ccc(Cl)cc2)c1 [13b]")
4.15
>>> test_value("NS(=O)(=O)c1ccc(N2CCN(Cc3ccccc3)C2=O)cc1")
3.90
>>> test_value("NS(=O)(=O)c1cccc(N2CCN(c3ccccc3)C2=O)c1 [11c]")
4.00
>>> test_value("Cc1ccc(NCCNc2cccc(S(N)(=O)=O)c2)cc1 [12a]")
3.76
>>> test_value("NS(=O)(=O)c1cccc(NCCNc2ccccc2)c1 [11a]")
4.81
>>> test_value("NS(=O)(=O)c1ccc(NCCNc2ccccc2Br)cc1")
4.05
>>> test_value("NS(=O)(=O)c1ccc(NCCNc2ccccc2F)cc1")
4.00

Could you tell me which pKi is on file for Cc1ccc(N2CCN(c3ccc(S(N)(=O)=O)cc3)C2=O)cc1 ? 4.08

Would you mind doing NS(=O)(=O)c1ccc(NC(=O)CNCc2ccccc2)cc1 as well? 4.27

Would you mind doing NS(=O)(=O)c1ccc(NCCNc2ccc(I)cc2)cc1 as well? 3.87

###

For reference, pKi measured on VchβCA (Vibrio cholerae, UniProt A0A086SLX8):
Reminder that pKi is minus the log10 of a molar concentration.

>>> test_value("CC(C)NCC(=O)Nc1ccc(S(N)(=O)=O)cc1 [10b]")
5.40

Could you tell me which pKi is on file for Cc1cccc(N2CCN(c3ccc(S(N)(=O)=O)cc3)C2=O)n1 ? 3.91

Would you mind doing CC(C)N1CCN(c2ccc(S(N)(=O)=O)cc2)C1=O [10c] as well? 3.95

Would you mind doing NS(=O)(=O)c1cccc(NC(=O)CNc2ccccc2Br)c1 [14b] as well? 4.80

Would you mind doing Cc1cccc(NCCNc2ccc(S(N)(=O)=O)cc2)n1 as well? 4.72

Would you mind doing NS(=O)(=O)c1ccc(N2CCN(c3ccccc3)C2=O)cc1 as well? 3.87

Would you mind doing NS(=O)(=O)c1ccc(NC(=O)CNc2ccc(Cl)cc2)cc1 as well? 3.93

Would you mind doing NS(=O)(=O)c1cccc(NCCNc2ccccc2Br)c1 [14a] as well? 4.01

###

For reference, log10 of Ki measured on VchγCA (Vibrio cholerae, UniProt Q9KVT1):
Plainly stated, the numbers are log10 of Ki given in µM.

Could you tell me which log10 of Ki is on file for NS(=O)(=O)c1ccc(N2CCN(c3ccc(I)cc3)C2=O)cc1 [4c] ? 1.86

Would you mind doing NS(=O)(=O)c1cccc(N2CCN(c3ccc(Cl)cc3)C2=O)c1 [13c] as well? 1.87

Would you mind doing NS(=O)(=O)c1cccc(N2CCN(c3ccccc3Br)C2=O)c1 [14c] as well? 1.91

Would you mind doing NS(=O)(=O)c1ccc(N2CCN(c3ccccc3)C2=O)cc1 [1c] as well? 0.70

Would you mind doing Cc1cccc(NCC(=O)Nc2ccc(S(N)(=O)=O)cc2)n1 [7b] as well? 1.78

Would you mind doing NS(=O)(=O)c1ccc(N2CCN(Cc3ccccc3)C2=O)cc1 [8c] as well? 0.91

Would you mind doing NS(=O)(=O)c1ccc(NC(=O)CNc2ccc(I)cc2)cc1 [4b] as well? 1.86

Would you mind doing NS(=O)(=O)c1cccc(NCCNc2ccc(Cl)cc2)c1 [13a] as well? 0.75

Would you mind doing CCCCN1CCN(c2cccc(S(N)(=O)=O)c2)C1=O [15c] as well? 0.90

Would you mind doing Cc1ccc(NCCNc2ccc(S(N)(=O)=O)cc2)cc1 [2a] as well? 1.60

Would you mind doing NS(=O)(=O)c1ccc(NC(=O)CNc2ccc(Cl)cc2)cc1 [3b] as well? 1.94

###

# STUDY_TARGET: VchγCA (Vibrio cholerae, UniProt Q9KVT1)
# Sequence (Q9KVT1 1-184): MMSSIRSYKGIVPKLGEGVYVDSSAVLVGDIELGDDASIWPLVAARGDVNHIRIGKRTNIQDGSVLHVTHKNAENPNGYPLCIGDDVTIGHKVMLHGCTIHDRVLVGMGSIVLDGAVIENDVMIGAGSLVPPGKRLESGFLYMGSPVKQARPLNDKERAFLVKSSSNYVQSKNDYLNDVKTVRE
OUTCOME_MEASURE: pKi
Reminder that pKi is minus the log10 of a molar concentration.

>>> test_value("NS(=O)(=O)c1cccc(N2CCN(c3ccccc3)C2=O)c1 [11c]")
5.19
>>> test_value("NS(=O)(=O)c1ccc(NCCNCc2ccccc2)cc1 [8a]")
4.28
>>> test_value("NS(=O)(=O)c1ccc(N2CCN(c3ccccc3Br)C2=O)cc1 [5c]")
4.14
>>> test_value("CC(C)NCCNc1ccc(S(N)(=O)=O)cc1 [10a]")
4.03
>>> test_value("NS(=O)(=O)c1ccc(NC(=O)CNc2ccccc2F)cc1 [6b]")
4.03
>>> test_value("Cc1ccc(N2CCN(c3ccc(S(N)(=O)=O)cc3)C2=O)cc1 [2c]")
5.46

Could you tell me which pKi is on file for Cc1ccc(NCCNc2cccc(S(N)(=O)=O)c2)cc1 [12a] ? 4.10

Would you mind doing CC(C)N1CCN(c2ccc(S(N)(=O)=O)cc2)C1=O [10c] as well? 4.19

Would you mind doing NS(=O)(=O)c1ccc(NC(=O)CNc2ccccc2Br)cc1 [5b] as well? 4.06

Would you mind doing CCCCNCC(=O)Nc1cccc(S(N)(=O)=O)c1 [15b] as well? 4.13

Would you mind doing Cc1cccc(NCCNc2ccc(S(N)(=O)=O)cc2)n1 [7a] as well? 4.16

Would you mind doing NS(=O)(=O)c1ccc(NC(=O)CNc2ccccc2)cc1 [1b] as well? 4.31

Would you mind doing Cc1ccc(N2CCN(c3cccc(S(N)(=O)=O)c3)C2=O)cc1 [12c] as well? 4.12

Would you mind doing NS(=O)(=O)c1ccc(NCCNc2ccccc2F)cc1 [6a] as well? 4.13

Would you mind doing Cc1ccc(NCC(=O)Nc2ccc(S(N)(=O)=O)cc2)cc1 [2b] as well? 4.08

###

# STUDY_TARGET: VchαCA (Vibrio cholerae)
# Sequence (Q9KMP6 entry or part of it): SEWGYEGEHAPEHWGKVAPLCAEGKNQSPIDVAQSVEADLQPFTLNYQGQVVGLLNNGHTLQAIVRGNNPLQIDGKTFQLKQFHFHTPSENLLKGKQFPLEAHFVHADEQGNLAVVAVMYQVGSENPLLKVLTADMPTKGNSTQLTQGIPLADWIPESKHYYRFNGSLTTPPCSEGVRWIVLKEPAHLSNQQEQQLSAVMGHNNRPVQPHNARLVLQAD
Binarize Ki at 0.02 µM; below is Condition met, at or above is Condition not met.

Dear colleague, could you confirm whether Ki of NS(=O)(=O)c1cccc(NC(=O)CNc2ccccc2Br)c1 [14b] falls below 0.02 µM? Thanks. Condition not met

Would you mind doing NS(=O)(=O)c1ccc(NCCNc2ccc(Cl)cc2)cc1 [3a] as well? Condition not met

Would you mind doing NS(=O)(=O)c1ccc(NCCNc2ccccc2)cc1 [1a] as well? Condition not met

Would you mind doing NS(=O)(=O)c1cccc(N2CCN(c3ccccc3Br)C2=O)c1 [14c] as well? Condition met

Would you mind doing Cc1ccc(NCCNc2cccc(S(N)(=O)=O)c2)cc1 [12a] as well? Condition not met

Would you mind doing Cc1ccc(NCC(=O)Nc2ccc(S(N)(=O)=O)cc2)cc1 [2b] as well? Condition not met

Would you mind doing NS(=O)(=O)c1cccc(NC(=O)CNc2ccc(Cl)cc2)c1 [13b] as well? Condition not met

Would you mind doing Cc1cccc(NCC(=O)Nc2ccc(S(N)(=O)=O)cc2)n1 [7b] as well? Condition met
